Data credit: patent US6432922

Target: Human rt-PA (Activase), obtained from Genentech Inc. (human, UniProt P00750 36-562)
Sequence (P00750 36-562 limits assumed): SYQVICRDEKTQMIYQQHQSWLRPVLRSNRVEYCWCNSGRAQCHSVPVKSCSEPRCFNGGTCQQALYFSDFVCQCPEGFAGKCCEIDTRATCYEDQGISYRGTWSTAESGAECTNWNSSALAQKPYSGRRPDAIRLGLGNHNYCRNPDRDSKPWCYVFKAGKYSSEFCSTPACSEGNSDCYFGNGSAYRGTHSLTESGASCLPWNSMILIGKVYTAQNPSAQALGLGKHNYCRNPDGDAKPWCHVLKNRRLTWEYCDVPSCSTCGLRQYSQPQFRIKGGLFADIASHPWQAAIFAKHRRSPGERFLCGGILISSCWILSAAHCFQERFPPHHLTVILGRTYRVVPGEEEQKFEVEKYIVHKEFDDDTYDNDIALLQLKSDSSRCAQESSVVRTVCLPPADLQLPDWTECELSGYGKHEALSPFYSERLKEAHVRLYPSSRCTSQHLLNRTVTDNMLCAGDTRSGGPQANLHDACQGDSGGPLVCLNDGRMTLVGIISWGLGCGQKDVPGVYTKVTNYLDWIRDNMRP
Experiment: cell-based or functional assay
pIC50: −log10 of the molar value. Non-standard residues stand in square brackets, D forms with d. Primed or numbered codes have the meaning given here. No end group written: not given here. *: point of attachment. argininal = arginine aldehyde, N=C(N)NCCC[C@@H](C=O)N*; aldehyde′ = argininal (arginine aldehyde) C-terminus; Propanoyl(3-cHex) = O=C(CCC1CCCCC1)*; cisHyp = O=C(O)[C@@H]1C[C@H](O)CN1; Isopropoxycarbonyl = CC(C)OC(=O)*; 3‑phenylpropyl = c1ccc(CCC*)cc1; dDap = NC[C@@H](N)C(=O)O; Cbz = O=C(OCc1ccccc1)*
measurementName: pIC50

Example entries begin here.
>  <binder>
Cbz-[dDap](Cbz)-Ala-[argininal] [N-α-N-β-dibenzyloxycarbonyl-D-2,3-diaminopropionyl-alanyl-argininal]

>  <pIC50>
< 5.60

$$$$
>  <binder>
benzylsulfonyl-[dS]-Ala-Arg-{aldehyde′} (also: trifluoroacetate salt) [Benzylsulfonyl-D-Ser-Ala-Arg-al, Trifluoroacetate Salt]

>  <pIC50>
< 5.60

$$$$
>  <binder>
fluorenylmethyloxycarbonyl-[dS]-Ala-[argininal] [fluorenylmethyloxycarbonyl-D-seryl-alanyl-argininal]

>  <pIC50>
< 5.60

$$$$
>  <binder>
Cbz-[dS]-[cisHyp]-Arg-{aldehyde′} [benzyloxycarbonyl-D-seryl-L-cis-4-hydroxyprolyl-argininal]

>  <pIC50>
< 5.60

$$$$
>  <binder>
{2‑ethylhexyloxycarbonyl}-[dS]-Ala-Arg-{aldehyde′} [2-ethylhexyloxy-carbonyl-D-seryl-alanyl-argininal]

>  <pIC50>
< 5.60

$$$$

INPUT: Supply measured pIC50 of Cbz-[dDap](2‑phenylethylcarbonyl)-Ala-[argininal] [N-α-benzyloxycarbonyl-N-β-2-phenylethylcarbonyl-D-2,3-diaminopropionyl-alanyl-argininal] in your reply.
OUTPUT: < 5.60

INPUT: Please list pIC50 recorded for the binder phenoxycarbonyl-[dS]-Ala-[argininal] [phenoxycarbonyl-D-seryl-alanyl-argininal]
OUTPUT: < 5.60

INPUT: Return pIC50 for the following binder: Cbz-Thr-Ala-[argininal] [benzyloxycarbonyl-threonyl-alanyl-argininal]
OUTPUT: < 5.60

INPUT: Report measured pIC50; entry is Isopropoxycarbonyl-[dS]-Ala-[argininal] [isopropyloxycarbonyl-D-seryl-alanyl-argininal]
OUTPUT: < 5.60

INPUT: State, in one line, measured pIC50 of {Propanoyl(3-cHex)}-[dS]-Ala-Arg-{aldehyde′} [3-cyclohexylpropionyl-D-seryl-alanyl-argininal]
OUTPUT: < 5.60

INPUT: State, in one line, measured pIC50 of {3‑phenylpropyl}-[dS]-Ala-Arg-{aldehyde′} (also: trifluoroacetate salt) [N-α-(3-phenylpropyl)-D-seryl-alanyl-argininal, trifluoroacetate salt]
OUTPUT: < 5.60

INPUT: Read off the recorded pIC50 for Cbz-[dT]-Pro-[argininal] [benzyloxycarbonyl-D-threonyl-prolyl-argininal]
OUTPUT: < 5.60
